Target: IDO (Homo sapiens)
Sequence (P14902 whole entry): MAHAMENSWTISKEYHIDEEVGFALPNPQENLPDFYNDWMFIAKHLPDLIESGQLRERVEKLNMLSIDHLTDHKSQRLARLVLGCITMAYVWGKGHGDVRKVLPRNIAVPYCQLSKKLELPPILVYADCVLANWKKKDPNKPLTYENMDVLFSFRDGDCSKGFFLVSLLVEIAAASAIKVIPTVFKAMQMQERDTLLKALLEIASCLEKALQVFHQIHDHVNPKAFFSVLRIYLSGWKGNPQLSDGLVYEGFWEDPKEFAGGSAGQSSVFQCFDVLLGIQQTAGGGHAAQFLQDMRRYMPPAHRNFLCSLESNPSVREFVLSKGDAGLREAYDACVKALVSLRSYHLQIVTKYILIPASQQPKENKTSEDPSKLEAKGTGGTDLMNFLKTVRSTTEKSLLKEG
Assay: hIDO biochemical coupled assay
Conditions: 45 μM L-tryptophan, 17 minutes, room temperature; read-out: hIDO biochemical assay pIC50 (converted)
Reported metric: IC50

{"Molecule": "CC1(C)CN(c2cc(Cl)cc3c(N)noc23)CCN1S(C)(=O)=O [Compound 317]", "Result": "> 100 µM"}
{"Molecule": "CN(C1CCN(c2cc(Cl)cc3[nH]ncc23)C1)S(C)(=O)=O (centres unmarked) [Compound 243]", "Result": "32.4 to 100 µM"}
{"Molecule": "Cn1cc(-c2cc(Cl)cc3[nH]ncc23)cn1 [Compound 366]", "Result": "> 100 µM"}
{"Molecule": "O=C1NC(=O)C2(CCN(c3cc(Br)cc4[nH]ncc34)CC2)N1 [Compound 290]", "Result": "< 3.16 µM"}

Input line: // lookup IC50 for CC(C)(O)c1cc(Cl)cc2[nH]ncc12 [Compound 259]
Output line: > 100 µM
